The reader will find reported apparent Kd values listed item by item below.
test system: MS2 coat protein; experiment: apparent Kd, MS2 coat protein; higher = weaker binding; RNA-MaP array; conditions: ligand present: flavin mononucleotide; designed as: OFF switch for flavin mononucleotide
measurement label: apparent Kd

- entry sequence: "CUAGUGUGAGGAUAUGAGUCAACCUUUUAGUUCUAAGGAGAUCAGAAGGCACAUGAGGAUCACCCAUGUCAGAA"
  reported: "84 nM"
- entry sequence: "UGGUCAGAUGUAAGGAUAUUCGCUCUAAUUUCUCAGAAGAAGGUACAUGAGGAUCACCCAUGUAAUAAAGAAAA"
  reported: "19.6 nM"
- entry sequence: "UAAAUUGAAGGAUAUACAUGAGGAUCACCCAUGUAAGAAAUACAUGAAAAUAACAACAGUAGAAGGUCAAAACU"
  reported: "12.7 nM"
- entry sequence: "GAUCCCACGAAGAAGGUCAGAUUUAGAUUACUUGAAGGAUAUUCACAUGAGGAUCACCCAUGUCCCGGCGCGGACUAGCCGAAU"
  reported: "235 nM"
- entry sequence: "UCUAUUAACUAAGGAUAUAGAACAGGCCGGAUUUUGUUGCGUCUGACAUGAGGAUCACCCAUGUUCUAGAAGGUAGACUGCUGC"
  reported: "11.7 nM"

---

test system: MS2 coat protein; assay: apparent Kd, MS2 coat protein; higher = weaker binding; RNA-MaP array; FMN 200 µM where present; settings: ligand present: flavin mononucleotide; designed as: OFF switch for flavin mononucleotide
Assign fulfilled to entries whose apparent Kd meets or exceeds 100 nM; assign not fulfilled to the rest.

- entry sequence: "UGCGACCUAGGAUAUACAUGAGGAUCACCCAUGUGAUUCGGUGGCGCGAUCCUUGAAAGUAGAAGGAGGAGCAA"
  cat: "not fulfilled"
- entry sequence: "GUCAGCUUGUGAGGAUAUACAACACUGCUUCGGCAGUGUAUUAAGAUCACAUGAGGAUCACCCAUGUAGAAGGCACGAGCUGAU"
  cat: "fulfilled"
- entry sequence: "UUUUAACAUGAGGAUCACCCAUGUGAGGAUAUCGAAAUUUAUAUUAAUAUUUUUAAUUCGAGAAGGCACAUUUU"
  cat: "fulfilled"
- entry sequence: "GCAAAAGUCCUGAGGGUAGGAGACAGAAGGGCACCGGGAUCACUCCACAUGAGGAUCACCCAUGUGCAGGAUAUGUCGGCUGAA"
  cat: "fulfilled"
- entry sequence: "UCAGGCUUCGAGAAGGACAUGAAUCGUAGCAUUGCUACGAUGAAACAUACAUGAGGAUCACCCAUGUAGGAUAUCGGAGUCUGC"
  cat: "not fulfilled"
- entry sequence: "GCUAGAUUUGCAGGAUAUUGUAAUUUAUUAUUUCAAGAAGGGCAUUACAUGAGGAUCACCCAUGUCAUCCUAUGGUUUACUAGC"
  cat: "not fulfilled"

---

Entries and their measured apparent Kd follow.
system: MS2 coat protein; assay: apparent Kd, MS2 coat protein; higher = weaker binding; RNA-MaP array; conditions: ligand present: flavin mononucleotide; designed as: OFF switch for flavin mononucleotide
measurement label: apparent Kd (nM)

- entry sequence: "UGAGUCUAAGGAUAUGCUGCCGACAACAUGAGGAUCACCCAUGUCUUUCGUUGUUCGCCGGCAGAAGGUAGCAAUU"
  reported: 262
- entry sequence: "UUACGGCAAGGAUAUACAUGAGGAUCACCCAUGUACUCUUUAUAAAUUAGUCAGCAUGGUAGAAGGUGCCGCUA"
  reported: 11
- entry sequence: "AAUAUAAACGUCAGGAUAUUCACGAUAAACAAAUAGAAGAAGGGACAUGAGGAUCACCCAUGUAAACAUGAGUA"
  reported: 18.3
- entry sequence: "GGAUACAGGAUAGGAUAUUCUGGGCCUUACAUGAGGAUCACCCAUGUGGAUUUUAUAUAUAGCCGGAAGAAGGAUCAACAGGUG"
  reported: 9.21
- entry sequence: "AAGCGUUCAGGAUAUACAUGAGGAUCACCCAUGUAAUGGAUGCUGCAUUACCGGGCGAGUAGAAGGGAAACGUC"
  reported: 6.24
- entry sequence: "UAUAGUUAAAAGGAUAUCGAAAACAAGCGUAAACGAGAAGGUUUAACAUGAGGAUCACCCAUGUAAGGAGAUGG"
  reported: 139
- entry sequence: "CCUGGGACAUGAGGAUCACCCAUGUGUGUUAUCGGUGCGUGAGAGGAUAUACACAGCGUCCGUUAGUAGAAGGCUCAUGAUGUA"
  reported: 52.5
- entry sequence: "GGCCUCACAUGAGGAUCACCCAUGUUACUACUUGUUCGAUUGGAGGAUAUCUCUAGAAUUUACUGAGAGAAGGCCAAUAUGGGA"
  reported: 191

---

tested on: MS2 coat protein; test: apparent Kd, MS2 coat protein; higher = weaker binding; RNA-MaP array; conditions: designed as: OFF switch for flavin mononucleotide; no ligand
Tick met if apparent Kd is 40 nM or greater. Tick not met if apparent Kd is less than 40 nM.

- entry sequence: "UCCUCGUUAGGAUAUGCCCACAUACACAGUUGUGAACUCUGGCAGAAGGAACAUGAGGAUCACCCAUGUAUAUA"
  cat: "met"
- entry sequence: "UUACCAGCAGGAUAUUCAUCUGUUAACAUGAGGAUCACCCAUGUCUCGUGAUCGAACUAGGAAGAAGGGCUUAUAC"
  cat: "met"
- entry sequence: "GAAUUUCGGAAGAAGGGACUCGAUCAGUUCAGGUCAGGAUAUUCACAUGAGGAUCACCCAUGUCCAUCAGCAUGACGUUUCCAC"
  cat: "not met"
- entry sequence: "GGCCUCACAUGAGGAUCACCCAUGUUACUACUUGUUCGAUUGGAGGAUAUCUCUAGAAUUUACUGAGAGAAGGCCAAUAUGGGA"
  cat: "met"
- entry sequence: "GUUCGCUGAGGAUAUACAUGAGGAUCACCCAUGUUCAAGUCUCGUGACUGUUCCCAGCGUAGAAGGCAGCGGUG"
  cat: "not met"
- entry sequence: "ACGAAUGGUUCAACAUGAGGAUCACCCAUGUGAUCUUCCAUUCAGGAUAUGUGUAGUAGAUCUCAACAGAAGGGAAUAAAAUAG"
  cat: "not met"
- entry sequence: "AAGCUUCAACUUCAUUCACAUGAGGAUCACCCAUGUGAUCCGAGAAGGUUUCACUAGAAUUCUGAAAAGGAUAUCGAUCACAAU"
  cat: "not met"
- entry sequence: "UGGGAACGAGGAUAUACAUGAGGAUCACCCAUGUUCAAGAUUCGGGUAUAAUGCCUCAGUAGAAGGCGUAAGCA"
  cat: "met"
- entry sequence: "CGAUCCUUGCAGAAGGACUAAAACCAAAUACCAGUAGGAUAUGCAACAUGAGGAUCACCCAUGUGACGAAGGAUGCGGGAAAUA"
  cat: "not met"
- entry sequence: "UCAUUUUCAGAAGGAUAUUUACCAGGCCAAGGUAAAGAAGGUCUAUGGGUCACUUCCUUGAUACAUGAGGAUCACCCAUGUGAA"
  cat: "met"
- entry sequence: "CCUUGUGUGAAGGAUAUAGGUUUAUGUUUCUGUCUAGAAGGUCACACAUGAGGAUCACCCAUGUAUAUCCUAGA"
  cat: "not met"
- entry sequence: "GAUCCCACGAAGAAGGUCAGAUUUAGAUUACUUGAAGGAUAUUCACAUGAGGAUCACCCAUGUCCCGGCGCGGACUAGCCGAAU"
  cat: "met"
- entry sequence: "UGGUCAGAUGUAAGGAUAUUCGCUCUAAUUUCUCAGAAGAAGGUACAUGAGGAUCACCCAUGUAAUAAAGAAAA"
  cat: "not met"
- entry sequence: "GAAUGUUGGAAGAAGGCACGCCCUGCAUGGCGGUGAGGAUAUUCCGUACUUGGAGUGGAAACAUGAGGAUCACCCAUGUAAGUA"
  cat: "not met"
- entry sequence: "AGGCACCAGAGAGGAUAUUAGGACAGCGAACAUGAGGAUCACCCAUGUAUGUUUGUUAGGCGAGCUAAGAAGGCUCCACGGGUU"
  cat: "not met"
- entry sequence: "AUAUUCGUUCAGGAUAUGUUAAGCUCACGCCUAACAGAAGGGAAUACAUGAGGAUCACCCAUGUGGUGAUGGGA"
  cat: "met"
- entry sequence: "CAACGGUUAGAGAAGGCAUAGUAAAGAAUUCAAUGAGGAUAUCUAAAGAAAUGUAUAGGUCUUUUACAUGAGGAUCACCCAUGU"
  cat: "not met"
- entry sequence: "GUGUCUUGGGAGGAUAUCCACUUCACGUCAUAUGGAGAAGGCCCGACAUGAGGAUCACCCAUGUGGUAACUGGC"
  cat: "not met"
- entry sequence: "UCUAUUAACUAAGGAUAUAGAACAGGCCGGAUUUUGUUGCGUCUGACAUGAGGAUCACCCAUGUUCUAGAAGGUAGACUGCUGC"
  cat: "not met"
- entry sequence: "UCCGUUGUAGGAUAUACAUGAGGAUCACCCAUGUAAUGUGGGCAAUUAUAAACUUACUGUAGAAGGACAGAGUG"
  cat: "met"
- entry sequence: "CACAUGUCAGGAUAUAGCGAUACAGUUCGACCACUUACUGCCUAGAAGGGACAUGAGGAUCACCCAUGUAAAAG"
  cat: "not met"
